system: Vero E6 infected with SARS-CoV-2; assay: inhibition of SARS-CoV-2 cytopathic effect; higher = more antiviral protection, active = above 15; conditions: 8.33 nM; 48 h
endpointLabel: inhibition of SARS-CoV-2 cytopathic effect (%)
Numbers only here, please. The scale is %.

Would you kindly share the measured inhibition of SARS-CoV-2 cytopathic effect for Nc1ccc([As](=O)(O)O)cc1 ?
1.05

Would you kindly repeat that for COc1cc2ncnc(Oc3cccc(NC(=O)Nc4cc(C(C)(C)C(F)(F)F)on4)c3)c2cc1OC ?
0.69

Would you kindly repeat that for CO[C@H]1CC[C@H](N(c2cc(C3=CCCCC3)sc2C(=O)O)C(=O)[C@H]2CC[C@H](C)CC2)CC1 ?
0.07

Would you kindly repeat that for C[C@@H]1CN(c2c(F)c(N)c3c(=O)c(C(=O)O)cn(C4CC4)c3c2F)C[C@H](C)N1 ?
2.09

Would you kindly repeat that for COc1ccc(-c2cc(=O)c3c(OC)c(OC)c(OC)c(OC)c3o2)cc1OC ?
-2.18

Would you kindly repeat that for O=[N+]([O-])c1cc([N+](=O)[O-])c(/C=C/c2ccc(Cl)c(Cl)c2)cc1/C=C/c1ccc(Cl)c(Cl)c1 ?
1.02

Would you kindly repeat that for COC(=O)Nc1nc2cc(Sc3ccccc3)ccc2[nH]1 ?
-1.31

Would you kindly repeat that for O=C(CCCN1CCC2(CC1)C(=O)N(Cc1cccc(F)c1)CN2c1ccccc1)c1ccc(F)cc1 ?
1.76

Would you kindly repeat that for CS(=O)(=O)c1ccc([C@@H](O)[C@@H](CF)NC(=O)C(Cl)Cl)cc1 ?
-3.73

Would you kindly repeat that for CCC(=O)O[C@@H]1CC(=O)O[C@H](C)C/C=C/C=C/[C@H](OC(C)=O)[C@H](C)C[C@H](CC=O)[C@H](O[C@@H]2O[C@H](C)[C@@H](O[C@H]3C[C@@](C)(OC(C)=O)[C@@H](OC(=O)CC)[C@H](C)O3)[C@H](N(C)C)[C@H]2O)[C@H]1OC ?
1.39

Would you kindly repeat that for c1ccc(N2CCN(Cc3nc4ccccc4[nH]3)CC2)nc1 ?
2.21

Would you kindly repeat that for Cc1ccc(S(=O)(=O)NC2c3ccccc3Oc3ccccc32)cc1 ?
-2.13

Would you kindly repeat that for O=P(O)(O)CN(CCN(CP(=O)(O)O)CP(=O)(O)O)CP(=O)(O)O ?
0.56

Would you kindly repeat that for Cn1cccc1/C=C1\C(=O)NC(=O)c2ccccc21 ?
-0.08

Would you kindly repeat that for CC[C@@H](C(=O)[C@@H](C)[C@@H](O)[C@H](C)[C@@H]1O[C@@H]([C@@H](CC)C(=O)O)CC[C@@H]1C)[C@H]1O[C@]2(C=C[C@@H](O)[C@]3(CC[C@@](C)([C@H]4CC[C@](O)(CC)[C@H](C)O4)O3)O2)[C@H](C)C[C@@H]1C ?
0.16

Would you kindly repeat that for CC1(N)CCN(c2cnc(-c3cccc(Cl)c3Cl)c(N)n2)CC1 ?
2.23

Would you kindly repeat that for CC(C)(C)CCN1C[C@@H]2[C@@H](CNC(=O)c3cc(Cl)cc(Cl)c3)[C@@H]2C1 ?
2.05

Would you kindly repeat that for O=C(NCCN1CCOCC1)c1ccc(Cl)cc1 [moclobemide] ?
2.39

Would you kindly repeat that for C1N2CN3CN1CN(C2)C3 ?
0.58

Would you kindly repeat that for CCC(=O)NS(=O)(=O)c1ccc(-c2c(-c3ccccc3)noc2C)cc1 ?
0.02

Would you kindly repeat that for CCCCCCNC(=O)n1cc(F)c(=O)[nH]c1=O ?
4.18
